Measured normalized growth by item
assay: chemical genetic growth profiling, strain panel (AID 1159580);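 also: tested at 20 µM; growth read once vehicle control cultures reached saturation at 30 °C; 1 = growth at the plate median or of vehicle wells; lower values mean less growth of the strain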; conditions: S. cerevisiae deletion strains, growth OD, locus YIR030C, strain dcg1, active compounds read low
Among all 5,500 compounds or so, about 2,000 (36%) were called active. Inconclusive results (about 18%) are left out. This is one part of the list.

Check out these entries, answers already filled in.
compound=N[C@@H](Cc1ccc(O)c(O)c1)C(=O)O readout_value="1 (inactive)"
compound=Nc1ccc(S(=O)(=O)Nc2ccc(Cl)nn2)cc1 readout_value="1.01 (inactive)"
compound=C[C@H](N)[C@H](O)c1ccc(O)c(O)c1 readout_value="0.988 (inactive)"

Q: Note down normalized growth recorded for CC(=O)Nc1ccc(S(=O)(=O)Nc2ccc([N+](=O)[O-])cc2)cc1
A: 1.01 (inactive)

Q: Note down normalized growth recorded for C[C@H]1[C@H]2CCC3C4CC=C5C[C@@H](N(C)C)CC[C@]5(C)C4CC[C@@]32CN1C (stereo partly specified)
A: 0.999 (inactive)

Q: Note down normalized growth recorded for CC(=O)Oc1ccc(Cl)c2cccnc12
A: 0.0565 (active)
